# target_or_test_system: Recombinant human BACE1 (Homo sapiens, UniProt P56817)
# Construct: purchased R&D Systems
# Sequence (P56817 46-501): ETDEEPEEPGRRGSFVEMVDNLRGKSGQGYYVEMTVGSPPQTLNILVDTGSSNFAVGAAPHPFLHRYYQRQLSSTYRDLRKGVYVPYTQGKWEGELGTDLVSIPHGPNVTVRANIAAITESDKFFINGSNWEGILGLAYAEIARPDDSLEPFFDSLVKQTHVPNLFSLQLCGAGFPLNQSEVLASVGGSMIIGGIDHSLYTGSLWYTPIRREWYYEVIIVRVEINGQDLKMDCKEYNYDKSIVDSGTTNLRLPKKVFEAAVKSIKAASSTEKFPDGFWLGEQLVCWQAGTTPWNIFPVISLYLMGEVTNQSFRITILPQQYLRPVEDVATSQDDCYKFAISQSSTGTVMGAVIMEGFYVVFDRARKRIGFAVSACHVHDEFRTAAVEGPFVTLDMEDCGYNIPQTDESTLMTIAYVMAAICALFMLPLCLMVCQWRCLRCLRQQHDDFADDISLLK
# assay_details: Assay of BACE1 inhibitory activity: 384-well
# Assay type: biochemical
# condition_description: Assay format 384-well
measured_attribute: pIC50
One number for each entry, as −log10 of the molar value.

C[C@]1(c2cc(NC(=O)c3cnc(OCF)cn3)ccc2F)N=C(N)S[C@H](CO)[C@@H]1F 7.97
COC[C@H]1SC(N)=N[C@](C)(c2cc(NC(=O)c3cnc(OCF)cn3)ccc2F)[C@H]1F 8.20
COc1cnc(C(=O)Nc2ccc(F)c([C@@]3(C)N=C(N)O[C@H](C(C)(F)F)[C@@H]3F)c2)cn1 7.83

Return reported pIC50 values for all items listed beneath this line.
1. COc1cnc(C(=O)Nc2cccc([C@@]3(C)N=C(N)S[C@H](C)[C@@H]3F)c2)cn1
2. [2H]C([2H])([2H])Oc1cnc(C(=O)Nc2cccc([C@@]3(C)N=C(N)S[C@H](C)[C@@H]3F)c2)cn1
3. C[C@]1(c2cc(NC(=O)c3ccc(OCF)cn3)ccc2F)N=C(N)SCC12CC(F)(F)C2
4. C[C@H]1SC(N)=N[C@](C)(c2cc(NC(=O)c3cnc(OCF)cn3)ccc2F)C12CC(F)(F)C2
5. C[C@H]1SC(N)=N[C@](C)(c2cc(NC(=O)c3cnc(OCC4CC4)cn3)ccc2F)[C@H]1F
6. CC[C@H]1SC(N)=N[C@](C)(c2cc(NC(=O)c3ccc(C#N)cn3)ccc2F)[C@H]1F
7. CCOc1cnc(C(=O)Nc2ccc(F)c([C@@]3(C)N=C(N)S[C@H](C)[C@@H]3F)c2)cn1

1: 7.76; 2: 7.38; 3: 7.86; 4: 8.11; 5: 7.81; 6: 8.03; 7: 7.89

Return reported pIC50 values for all items listed beneath this line.
1. CC(F)(F)[C@H]1OC(N)=N[C@](C)(c2cc(NC(=O)c3cnc(OCC(F)F)cn3)ccc2F)[C@H]1F
2. C[C@]1(c2cc(NC(=O)c3ccc(OCF)cn3)ccc2F)N=C(N)O[C@H](C2(F)CC2)[C@@H]1F
3. COc1ccc(C(=O)Nc2ccc(F)c([C@@]3(C)N=C(N)O[C@H](C(F)(F)C4CC4)[C@@H]3F)c2)nn1
4. C[C@@H]1SC(N)=N[C@](C)(c2cc(NC(=O)c3ccc(C#N)cn3)ccc2F)[C@@H]1F

[7.34, 7.60, 7.63, 6.79]

----------
# target_or_test_system: Recombinant human BACE1 (Homo sapiens)
# Construct: purchased R&D Systems
# assay_details: Assay of BACE1 inhibitory activity: 384-well
# Assay type: biochemical
# condition_description: Assay format 384-well
Field: label. Allowed values: y (IC50 < 20 nM) or n (IC50 >= 20 nM).

Previously resolved entries follow.
C[C@]1(c2cc(NC(=O)c3ccc(C#N)cn3)ccc2F)N=C(N)O[C@H](C2(F)CC2)[C@@H]1F n
C[C@H]1SC(N)=N[C@](C)(c2cc(NC(=O)c3ccc(F)cn3)ccc2F)[C@H]1F y
COc1cnc(C(=O)Nc2ccc(F)c([C@@]3(C)N=C(N)S[C@H](C)[C@@H]3OC)c2)cn1 y
CO[C@H]1[C@@H](C)SC(N)=N[C@]1(C)c1cc(NC(=O)c2ccc(C#N)cn2)ccc1F y
COC[C@H]1SC(N)=N[C@](C)(c2cc(NC(=O)c3ccc(C#N)cn3)ccc2F)[C@H]1F y

Could you please tell me whether IC50 recorded for "CC[C@H]1SC(N)=N[C@](C)(c2cc(NC(=O)c3ccc(F)cn3)ccc2F)[C@H]1F" is less than 20 nM?
y
